Tested on: MS2 coat protein
EXPERIMENT_NOTES: apparent KD of MS2 coat protein; designed switch direction (-1 OFF switch, 1 ON switch): -1; higher = weaker reporter binding
PARTICULARS: input ligand: none
For each record, write down the corresponding apparent KD of MS2 coat protein.
Provide the reading as a plain figure in µM.

State its apparent KD of MS2 coat protein for this sequence: UGCACCUCAGGAUAUACUAGGUCCAGUAUGGCGAAAGCCGCACAUGAGGAUCACCCAUGUAGAAGGGAGGUGCA [Eternabot (L1) Solution 61] (Eterna round: R97, puzzle: Exclusion 2)
0.257

State its apparent KD of MS2 coat protein for this sequence: CUUAUGGUCCAUACCUAGAACAUGAGGAUCACCCAUGUAAUACAUGACACCUACCUUAAGCACAGCUCGUCUUGUAG [Eternabot (Original) Solution 30] (Eterna round: R97, puzzle: Sensor, turn-off variant 1)
0.057

State its apparent KD of MS2 coat protein for this sequence: GUACUGAAGCUUUGCUUUAGUCGUACAUGAGGAUCACCCAUGUAGGAUAUGGUAGGCUUUGCUUACUAGAAGGAUAGAGUGAUC [JL EXNG3 1.27] (Eterna round: R96, puzzle: Exclusion NG 3)
0.119

State its apparent KD of MS2 coat protein for this sequence: CUAGUAUAUCAGGAUAUGAUAUUGUGUAGUAAAUCAGAAGGGAUGACAUGAGGAUCACCCAUGUUAAGGGAUGA [JR_Ex6_Sub047] (Eterna round: R97, puzzle: Exclusion 6)
0.0543

State its apparent KD of MS2 coat protein for this sequence: ACAUGAGGAUCACCCAUGUAAACAUGAUGGCUGAUGUAGAGCUAGGAUAUGAGUGACUUUCUAUCUCAGAAGGAGCUUGACUGG [Deportation 44 - Jieux - Exclusion NG 3] (Eterna round: R96, puzzle: Exclusion NG 3)
0.0452

State its apparent KD of MS2 coat protein for this sequence: UCCACACAUGAGGAUCACCCAUGUGAGGAUAUCAUGCUUCGUAGUAAACUACGAAGUGUGAGAAGGCACAUGGC [Omei Ex1 D13] (Eterna round: R97, puzzle: Exclusion 1)
0.0249

State its apparent KD of MS2 coat protein for this sequence: UAUUAGCAAGUGAGAUCCCACAUGAGGAUCACCCAUGUGCUCGUCUUUUAACGUACUGUGAGGAAACUCACGGUACG [Sensor-V1 #82] (Eterna round: R97, puzzle: Sensor, turn-off variant 1)
0.0671

State its apparent KD of MS2 coat protein for this sequence: AAGUAGUGUGUGAGGAUAUUGGUGGAAUGACACAUUAAGAAGGUACAUGAGGAUCACCCAUGUGGGUAAACACG [Brourd's EX4 #23] (Eterna round: R97, puzzle: Brourd's mod of Exclusion 4)
0.146

State its apparent KD of MS2 coat protein for this sequence: UCCAUGUCAGGAUAUCCUAGCGCAAAGUUGCCCGCGCUGCUGGAGAAGGGACAUGAGGAUCACCCAUGUCUACA [EX4 C.10] (Eterna round: R97, puzzle: Exclusion 4)
0.0232
